Where do these numbers come from? They come from the supplement of paper PMC10567573.

// values below are reported protein stability index
B1: ATE1 (parent)
chain: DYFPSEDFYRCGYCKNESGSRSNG

Variants of: B1
testDetails: protein stability index of a GFP-peptide fusion (GPS, HEK-293T) (PSI 1-6); higher = more stable;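 further: lentivirally expressed fusions sorted by FACS into six bins by GFP to DsRed ratio, PSI derived from sequencing read proportions per bin multiplied by bin number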
assayContext: c terminus: a fixed tail appended
endpoint: protein stability index

variant: D7A
endpoint: protein stability index
testValue: 1.63
//
variant: S20P
endpoint: protein stability index
testValue: 2.36
//
variant: F3V
endpoint: protein stability index
testValue: 2.13
//
variant: E17D
endpoint: protein stability index
testValue: 2.44
//
variant: Y2D
endpoint: protein stability index
testValue: 2.53
//
variant: S18A
endpoint: protein stability index
testValue: 2.67
//
variant: S20A
endpoint: protein stability index
testValue: 2.83
//
variant: N16I
endpoint: protein stability index
testValue: 1.74
//
variant: N16M
endpoint: protein stability index
testValue: 2.62
//
variant: E17M
endpoint: protein stability index
testValue: 2.45
//
variant: G19N
endpoint: protein stability index
testValue: 1.84
//
variant: G12W
endpoint: protein stability index
testValue: 3.35
//
variant: S18K
endpoint: protein stability index
testValue: 2.33
//
variant: G12V
endpoint: protein stability index
testValue: 2.4
//
variant: Y9P
endpoint: protein stability index
testValue: 2.57
//
variant: R10G
endpoint: protein stability index
testValue: 2.35
//
variant: Y2C
endpoint: protein stability index
testValue: 2.82
//
variant: G12L
endpoint: protein stability index
testValue: 2.63
//
variant: F3N
endpoint: protein stability index
testValue: 2.08
//
variant: G19D
endpoint: protein stability index
testValue: 2.45
//
variant: R10E
endpoint: protein stability index
testValue: 2.6
//
variant: F8N
endpoint: protein stability index
testValue: 2.16
